Test system: Candida albicans ATCC 24443
experiment-description: microbe, parasite or virus in culture
Type: cell-based
test-parameters: ATCC24443, 48 h, read-out: IC50 (50% growth inhibition) CA 48 h
measured-quantity: pIC50
Give only the number. pIC50 is defined as minus log10 of concentration in molar units.

[in] Please supply the value of reported pIC50 for the item OC(Cn1cncn1)(Cn1cncn1)c1ccc(F)cc1F [FLU, fluconazole, reference compound]
[out] 5.19

###

Test system: Staphylococcus aureus ATCC 29213
experiment-description: Antibacterial microdilution broth method (EUCAST)
Format: cell-based
test-parameters: ATCC29213, 48 h, read-out: MIC SA 48 h
measured-quantity: MIC (µM)
Supply the numeric figure in µM, leaving out any unit text.

compound	MIC / µM
[H]/N=C(\N)NN=Cc1cc(Cl)cc(Br)c1O	250
NC(=S)N/N=C/c1cc(I)cc(I)c1O	500
[H]/N=C(\N)NN=Cc1cc(I)c(O)c(I)c1	500
[H]/N=C(\N)NN=Cc1cc(I)ccc1O	125
[H]/N=C(\N)NN=Cc1ccc([N+](=O)[O-])o1	125

[in] Enter MIC (test system Staphylococcus aureus ATCC 29213) for "Cl.N=C(NN)N/N=C/c1cc(I)cc(I)c1O"
[out] 125

[in] Answer with MIC of "NC(=O)N/N=C/c1ccc([N+](=O)[O-])o1" measured for Staphylococcus aureus ATCC 29213.
[out] 125

[in] Check Staphylococcus aureus ATCC 29213 data and give MIC for "[H]/N=C(\N)NN=Cc1c(O)cccc1Cl" .
[out] 500
